Data credit: patent US10399940B2

Reported values of pEC50 for individual entries
Target: F508delCFTR (Homo sapiens, UniProt P13569, DEL508-508)
Construct: expressed in transfected cells; host or cells: CFBE41o- (human lung derived epithelial cell line), doxycycline-inducible expression
Sequence (P13569 with tags, fused parts or gaps DEL508-508): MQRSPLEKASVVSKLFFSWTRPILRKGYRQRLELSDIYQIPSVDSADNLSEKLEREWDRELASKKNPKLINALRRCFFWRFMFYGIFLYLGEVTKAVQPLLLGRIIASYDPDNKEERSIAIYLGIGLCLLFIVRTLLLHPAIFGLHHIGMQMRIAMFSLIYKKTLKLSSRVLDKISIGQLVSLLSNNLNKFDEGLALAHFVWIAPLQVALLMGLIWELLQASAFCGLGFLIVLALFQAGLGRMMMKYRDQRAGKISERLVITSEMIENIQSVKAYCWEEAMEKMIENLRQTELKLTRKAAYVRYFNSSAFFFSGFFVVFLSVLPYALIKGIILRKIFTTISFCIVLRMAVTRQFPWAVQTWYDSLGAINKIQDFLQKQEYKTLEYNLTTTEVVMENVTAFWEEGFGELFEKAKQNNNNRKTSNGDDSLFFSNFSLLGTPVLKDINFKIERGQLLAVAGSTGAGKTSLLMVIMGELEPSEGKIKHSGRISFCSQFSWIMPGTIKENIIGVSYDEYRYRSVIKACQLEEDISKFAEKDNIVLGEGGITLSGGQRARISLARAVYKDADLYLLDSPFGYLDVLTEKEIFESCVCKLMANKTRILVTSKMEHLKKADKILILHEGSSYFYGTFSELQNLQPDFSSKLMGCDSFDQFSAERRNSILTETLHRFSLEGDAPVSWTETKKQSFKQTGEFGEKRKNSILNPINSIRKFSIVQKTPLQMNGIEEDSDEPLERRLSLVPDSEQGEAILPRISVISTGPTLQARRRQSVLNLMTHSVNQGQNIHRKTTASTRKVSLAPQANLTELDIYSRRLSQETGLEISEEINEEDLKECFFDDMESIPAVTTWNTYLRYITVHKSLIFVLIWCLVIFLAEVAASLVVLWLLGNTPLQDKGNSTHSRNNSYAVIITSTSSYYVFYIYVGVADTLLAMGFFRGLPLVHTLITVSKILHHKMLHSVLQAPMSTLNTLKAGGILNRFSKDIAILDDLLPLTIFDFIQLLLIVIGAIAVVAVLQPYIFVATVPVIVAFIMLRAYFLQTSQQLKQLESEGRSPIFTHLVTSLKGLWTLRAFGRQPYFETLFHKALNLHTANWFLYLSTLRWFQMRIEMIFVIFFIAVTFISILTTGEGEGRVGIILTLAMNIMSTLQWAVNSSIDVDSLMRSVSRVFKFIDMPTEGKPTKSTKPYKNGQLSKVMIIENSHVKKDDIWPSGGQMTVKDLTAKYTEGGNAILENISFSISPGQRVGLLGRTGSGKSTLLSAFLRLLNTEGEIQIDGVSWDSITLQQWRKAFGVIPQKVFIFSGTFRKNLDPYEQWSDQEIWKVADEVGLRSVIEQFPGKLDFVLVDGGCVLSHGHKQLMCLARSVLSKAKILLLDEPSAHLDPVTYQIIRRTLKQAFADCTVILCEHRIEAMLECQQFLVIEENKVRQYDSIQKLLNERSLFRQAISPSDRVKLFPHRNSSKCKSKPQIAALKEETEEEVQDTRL
Test: Cell Surface Expression-Horse Radish Peroxidase (CSE-HRP) assay
Assay type: cell-based
Settings: CFBE41o-F508delCFTR-HRP cells; with co-corrector (2 μM of 3-[(2R,4R)-4-({[1-(2,2-difluoro-1,3-benzodioxol-5-yl)cyclopropyl]carbonyl}amino)-7-methoxy-3,4-dihydro-2H-chromen-2-yl]benzoic acid); read-out: EC50 (with co-corrector)
pEC50: −log10 of the molar value.
observation.type: pEC50

molecule: COc1ncc(C2CCC2)cc1CO[C@H]1[C@H](C(C)(C)C)[C@@H](C(=O)O)N(C(=O)[C@@H]2CCCO2)[C@H]1c1ccccc1C(C)C
value.observed: > 6.00
--
molecule: COc1ccc(C(F)(F)F)cc1C(CO[C@H]1[C@H](C(C)(C)C)[C@@H](C(=O)O)N(C(=O)[C@@H]2CCCCO2)[C@H]1c1ccccc1C)OC (stereo partly drawn)
value.observed: > 6.00
--
molecule: COc1ncc(C(F)(F)F)cc1CO[C@H]1[C@H](C(C)(C)C)[C@@H](C(=O)O)N(C(=O)[C@H]2CCCO2)[C@H]1c1ccccc1C(C)C
value.observed: 5.00 to 6.00
--
molecule: COc1ncc(C(C)(C)C)cc1CO[C@H]1[C@H](C(C)(C)C)[C@@H](C(=O)O)N(C(=O)OC(C)C)[C@H]1c1ccccc1F
value.observed: 5.00 to 6.00
--
molecule: COc1ncc(C(F)(F)F)cc1CO[C@H]1[C@H](C(C)(C)C)[C@@H](C(=O)O)N(C(=O)[C@@H]2CCCO2)[C@H]1c1ccccc1C
value.observed: > 6.00
--
molecule: COc1ncc(-c2ccc(F)cc2F)cc1CO[C@H]1[C@H](C(C)(C)C)[C@@H](C(=O)O)N(C(=O)OC(C)C)[C@H]1c1ccccc1
value.observed: 5.00 to 6.00
--
molecule: COc1ncc(C(F)(F)F)cc1CO[C@H]1[C@H](C(C)(C)OC)[C@@H](C(=O)O)N(C(=O)OC(C)C)[C@H]1c1ccccc1C(C)C
value.observed: > 6.00
--
molecule: COc1ncc(C(F)(F)F)cc1CO[C@H]1[C@H](C(C)(C)C)[C@@H](C(=O)O)N(C(=O)OC(C)C)[C@H]1c1ccccc1C
value.observed: > 6.00
--
molecule: COc1ncc(C(F)(F)F)cc1CO[C@H]1[C@H](C(C)(C)C)[C@@H](C(=O)O)N(C(=O)OC(C)C)[C@H]1c1ccccc1
value.observed: 5.00 to 6.00
--
molecule: COc1ncc(C(F)(F)F)cc1CO[C@H]1[C@H](C(C)(C)C)[C@@H](C(=O)O)N(C(=O)OC(C)C)[C@H]1c1c(F)cccc1F
value.observed: 5.00 to 6.00
--
molecule: COc1ncc(C(F)(F)F)cc1CO[C@H]1[C@H](C(C)(C)C)[C@@H](C(=O)O)N(C(=O)[C@H]2C[C@@H]3CC[C@H]2O3)[C@H]1c1cccc(C(C)(C)C)c1
value.observed: > 6.00
--
molecule: COc1ncc(C2CCC2)cc1CO[C@H]1[C@H](C(C)(C)C)[C@@H](C(=O)O)N(C(=O)[C@@H]2CCCCO2)[C@H]1c1cccc(Cl)c1C
value.observed: > 6.00
